Hey, just so you know, these numbers are from patent US20260297109A1.

# experiment.summary: In vivo pharmacokinetic experiment in CD-1 female mice, intravenous
# assay.setup: mouse, 2 mg/kg, CD-1 mice, 2 mpk, plasma, read-out: Cmax
Listed next: entries and their corresponding Cmax.
The response must be a number in ng/mL with no trailing unit.

{"columns": ["compound", "Cmax / ng/mL"],
 "data": [
  ["NS(=O)(=O)OC[C@H]1[C@H](F)[C@@H](Nc2ncncc2C(=O)c2cc3c(s2)CCC[C@]32NCCc3ccc(Cl)cc32)C[C@@H]1O [Compound 90]", 331],
  ["NS(=O)(=O)OC[C@H]1[C@H](F)[C@@H](Nc2ncncc2C(=O)c2cc3c(s2)C=C[C@]32NCCc3ccc(Cl)cc32)C[C@@H]1O [Compound 344]", 299],
  ["NS(=O)(=O)OC[C@H]1[C@H](F)[C@@H](Nc2ncncc2C(=O)c2cc3c(s2)CCC[C@]32NCCc3ccc(F)cc32)C[C@@H]1O [Compound 93]", 281]
]}

Shifting focus to the compound that follows.
Answer with the recorded Cmax for the compound listed here: NS(=O)(=O)OC[C@H]1[C@H](F)[C@@H](Nc2ncncc2C(=O)c2cc3c(s2)CC[C@]32NCCc3ccc(Cl)cc32)C[C@@H]1O [Compound 132]
438

---

# target.of.assay: SAE (Homo sapiens)
# Construct: endogenous in cells; host or cells: HCT116
# experiment.summary: SUMO IF: in vitro inhibitory activity assay against SAE in HCT116 cells (SUMO-2/3 immunofluorescence)
# Assay type: cell-based
# assay.setup: class symbols, 6 h at 37° C.
pIC50: −log10 of the molar value.
measurement.name: pIC50

The cases that follow already have their pIC50 on record.
{"columns": ["structure.as.smiles", "pIC50"],
 "data": [
  ["NS(=O)(=O)OC[C@H]1[C@H](F)[C@@H](Nc2ncncc2C(=O)c2cc3c(s2)CCC[C@]32OCCc3ccccc32)C[C@@H]1O", "6.70 to 7.30"],
  ["NS(=O)(=O)OC[C@H]1[C@H](F)[C@@H](Nc2ncncc2C(=O)c2cc3c(s2)CCC[C@@]32NCCc3ncc(Cl)cc32)C[C@@H]1O", "< 6.70"]
]}

Shifting focus to the molecule that follows.
Answer with the recorded pIC50 for the molecule listed here: CC1(C)CN[C@@]2(C=Cc3sc(C(=O)c4cncnc4N[C@H]4C[C@H](O)[C@@H](COS(N)(=O)=O)[C@@H]4F)cc32)c2cc(Cl)ccc21
< 6.70

---

# target.of.assay: SAE (Homo sapiens)
# Construct: endogenous in cells; host or cells: HCT116
# experiment.summary: SUMO IF: in vitro inhibitory activity assay against SAE in HCT116 cells (SUMO-2/3 immunofluorescence)
# Assay type: cell-based
# assay.setup: class symbols, 6 h at 37° C.
pIC50: −log10 of the molar value.
measurement.name: pIC50

The cases that follow already have their pIC50 on record.
{"columns": ["molecule", "recorded.measurement"],
 "data": [
  ["Cc1sc(C(=O)c2cncnc2N[C@H]2C[C@H](O)[C@@H](COS(N)(=O)=O)[C@@H]2F)cc1C1NCCc2cc(C#N)c(Cl)cc21 (stereo partly drawn)", "6.70 to 7.30"],
  ["NS(=O)(=O)OC[C@H]1[C@H](F)[C@@H](Nc2ncncc2C(=O)c2cc3c(s2)C=C[C@]32OCCc3ccc(F)cc32)C[C@@H]1O", "≥ 7.30"]
]}

Answer with the recorded pIC50 for the molecule listed here: N#Cc1cc2c(cc1Cl)C1(CCc3sc(C(=O)c4cncnc4N[C@H]4C[C@H](O)[C@@H](COS(N)(=O)=O)[C@@H]4F)cc31)NCC2 (stereo partly drawn)
6.70 to 7.30

---

Listed next: entries and their corresponding IC50.
# target.of.assay: SAE (Homo sapiens)
# Construct: endogenous in cells; host or cells: HCT116
# experiment.summary: SUMO IF: in vitro inhibitory activity assay against SAE in HCT116 cells (SUMO-2/3 immunofluorescence)
# Type: cell-based
# assay.setup: class symbols, 6 h at 37° C.

{"columns": ["compound", "IC50"],
 "data": [
  ["N#Cc1cc2c(cc1Cl)[C@@]1(CCc3sc(C(=O)c4cncnc4N[C@H]4C[C@H](O)[C@@H](COS(N)(=O)=O)[C@@H]4F)cc31)NCC2 [Compound 695]", "≤ 50 nM"],
  ["NS(=O)(=O)OC[C@H]1[C@H](F)[C@@H](Nc2ncncc2C(=O)c2cc3c(s2)CCCC32NCC3(CC3)c3ccc(Cl)cc32)C[C@@H]1O (stereo partly drawn) [Compound 123]", "50 to 200 nM"],
  ["CN1Cc2sc(C(=O)c3cncnc3N[C@H]3C[C@H](O)[C@@H](COS(N)(=O)=O)[C@@H]3F)cc2C2(C1)OCCc1ccc(F)cc12 (stereo partly drawn) [Compound 720]", "50 to 200 nM"]
]}

Answer with the recorded IC50 for the compound listed here: NS(=O)(=O)OC[C@H]1[C@H](F)[C@@H](Nc2ncncc2C(=O)c2cc3c(s2)COC[C@@]32NCCc3ccc(F)cc32)C[C@@H]1O [Compound 101]
> 200 nM

Answer with the recorded IC50 for the compound listed here: NS(=O)(=O)OC[C@H]1[C@H](F)[C@@H](Nc2ncncc2C(=O)c2cc3c(s2)CCC32NC3(CC3)Cc3ccc(Cl)cc32)C[C@@H]1O (stereo partly drawn) [Compound 166]
50 to 200 nM

Answer with the recorded IC50 for the compound listed here: Cc1sc(C(=O)c2cncnc2N[C@H]2C[C@H](O)[C@@H](COS(N)(=O)=O)[C@@H]2F)cc1C1OCCc2ccc(Cl)cc21 (stereo partly drawn) [Compound 987]
50 to 200 nM

---

Listed next: entries and their corresponding pIC50.
# target.of.assay: SAE (Homo sapiens, UniProt Q9UBT2)
# Construct: endogenous in cells; host or cells: HCT116
# Sequence (Q9UBT2 whole entry): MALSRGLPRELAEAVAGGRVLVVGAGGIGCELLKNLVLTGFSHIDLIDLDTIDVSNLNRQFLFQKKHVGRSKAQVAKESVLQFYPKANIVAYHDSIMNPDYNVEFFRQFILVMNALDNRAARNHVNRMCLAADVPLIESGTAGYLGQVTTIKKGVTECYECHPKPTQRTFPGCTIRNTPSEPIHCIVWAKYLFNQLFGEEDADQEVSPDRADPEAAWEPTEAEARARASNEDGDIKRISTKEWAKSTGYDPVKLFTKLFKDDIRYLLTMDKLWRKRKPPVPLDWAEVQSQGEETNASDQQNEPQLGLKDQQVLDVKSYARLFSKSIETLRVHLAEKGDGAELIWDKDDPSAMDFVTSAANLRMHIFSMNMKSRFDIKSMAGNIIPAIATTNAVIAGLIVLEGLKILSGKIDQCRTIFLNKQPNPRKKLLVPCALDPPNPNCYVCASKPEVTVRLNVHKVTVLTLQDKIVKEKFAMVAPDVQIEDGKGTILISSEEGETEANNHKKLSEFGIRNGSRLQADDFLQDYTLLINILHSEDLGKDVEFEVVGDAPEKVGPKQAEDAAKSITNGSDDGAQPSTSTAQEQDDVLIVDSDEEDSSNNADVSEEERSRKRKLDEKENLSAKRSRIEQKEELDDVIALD
# Sequence (Q9UBE0 whole entry, further chain): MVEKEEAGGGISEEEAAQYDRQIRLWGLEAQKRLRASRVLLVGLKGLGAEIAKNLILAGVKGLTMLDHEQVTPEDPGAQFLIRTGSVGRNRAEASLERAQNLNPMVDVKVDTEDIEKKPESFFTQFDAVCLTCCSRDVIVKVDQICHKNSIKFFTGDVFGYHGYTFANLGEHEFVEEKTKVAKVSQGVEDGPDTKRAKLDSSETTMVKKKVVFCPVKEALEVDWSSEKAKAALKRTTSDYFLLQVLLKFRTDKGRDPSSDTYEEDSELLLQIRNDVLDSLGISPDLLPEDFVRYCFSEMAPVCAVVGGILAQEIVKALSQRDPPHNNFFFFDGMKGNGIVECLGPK
# experiment.summary: SUMO IF: in vitro inhibitory activity assay against SAE in HCT116 cells (SUMO-2/3 immunofluorescence)
# Format: cell-based
# assay.setup: class symbols, 6 h at 37° C.
pIC50: −log10 of the molar value.

The cases that follow already have their pIC50 on record.
{"columns": ["compound", "pIC50"],
 "data": [
  ["Cc1sc(C(=O)c2cncnc2N[C@H]2C[C@H](O)[C@@H](COS(N)(=O)=O)[C@@H]2F)cc1[C@H]1NCCc2ccc(C#N)cc21", "< 6.70"],
  ["NS(=O)(=O)OC[C@H]1[C@H](F)[C@@H](Nc2ncncc2C(=O)c2cc3c(s2)CCC[C@@]32NCCc3ccc(Cl)nc32)C[C@@H]1O", "< 6.70"]
]}

Answer with the recorded pIC50 for the compound listed here: NS(=O)(=O)OC[C@H]1[C@H](F)[C@@H](Nc2ncncc2C(=O)c2cc3c(s2)CSCC32NCCc3ccc(Cl)nc32)C[C@@H]1O (stereo partly drawn)
6.70 to 7.30

Answer with the recorded pIC50 for the compound listed here: NS(=O)(=O)OC[C@H]1[C@H](F)[C@@H](Nc2ncncc2C(=O)c2cc3c(s2)C(F)(F)C[C@]32NCCc3ccc(F)cc32)C[C@@H]1O
6.70 to 7.30

Answer with the recorded pIC50 for the compound listed here: NS(=O)(=O)OC[C@H]1[C@H](F)[C@@H](Nc2ncncc2C(=O)c2nc3c(s2)COC[C@]32NCCc3ccc(Cl)cc32)C[C@@H]1O
< 6.70

Answer with the recorded pIC50 for the compound listed here: C#CCN1Cc2sc(C(=O)c3cncnc3N[C@H]3C[C@H](O)[C@@H](COS(N)(=O)=O)[C@@H]3F)cc2C2(C1)NCCc1ccc(Cl)cc12 (stereo partly drawn)
≥ 7.30

---

# experiment.summary: In vivo pharmacokinetic experiment in CD-1 female mice, intravenous
# assay.setup: mouse, 1 mg/kg, CD-1 mice, 1 mpk, plasma, read-out: Cmax
measurement.name: Cmax (ng/mL)
The response must be a number in ng/mL with no trailing unit.

Answer with the recorded Cmax for the compound listed here: Cc1sc(C(=O)c2cncnc2N[C@H]2C[C@H](O)[C@@H](COS(N)(=O)=O)[C@@H]2F)cc1[C@@H]1NCCc2ccc(Cl)cc21
58

---

# target.of.assay: SAE (Homo sapiens)
# Construct: endogenous in cells; host or cells: HCT116
# experiment.summary: SUMO IF: in vitro inhibitory activity assay against SAE in HCT116 cells (SUMO-2/3 immunofluorescence)
# Format: cell-based
# assay.setup: class symbols, 6 h at 37° C.
# Method: Biological Example 1. In Vitro Inhibitory Activity Assay of Compounds of the Present Disclosure Against SAE HCT116 cells were seeded into a 96-well black transparent bottom plate at about 20000/well with 90 μL per well. The cells were incubated at 37° C. overnight for 24 h. […] The fluorescence signal of the sample was detected and compared to the DMSO group, and the inhibition rate and IC50 were calculated.
measurement.name: IC50

The cases that follow already have their IC50 on record.
{"columns": ["molecule", "IC50"],
 "data": [
  ["C#Cc1sc(C(=O)c2cncnc2N[C@H]2C[C@H](O)[C@@H](COS(N)(=O)=O)[C@@H]2F)cc1C1NCCc2ccc(Cl)cc21 (stereo partly drawn)", "50 to 200 nM"],
  ["NS(=O)(=O)OC[C@H]1[C@H](F)[C@@H](Nc2ncncc2C(=O)c2cc3c(s2)CC=CC32NCCc3ccc(Cl)cc32)C[C@@H]1O (stereo partly drawn)", "≤ 50 nM"],
  ["CN1Cc2sc(C(=O)c3cncnc3N[C@H]3C[C@H](O)[C@@H](COS(N)(=O)=O)[C@@H]3F)cc2C2(C1)NCCc1ccc(Cl)cc12 (stereo partly drawn)", "≤ 50 nM"],
  ["CC1=CC2(NCCc3ccc(Cl)cc32)c2cc(C(=O)c3cncnc3N[C@H]3C[C@H](O)[C@@H](COS(N)(=O)=O)[C@@H]3F)sc21 (stereo partly drawn)", "50 to 200 nM"],
  ["COc1cc2c(cc1Cl)C1(CCCc3sc(C(=O)c4cncnc4N[C@H]4C[C@H](O)[C@@H](COS(N)(=O)=O)[C@@H]4F)cc31)NCC2 (stereo partly drawn)", "50 to 200 nM"]
]}

Shifting focus to the molecule that follows.
Return reported IC50 for target or system SAE (Homo sapiens), item NS(=O)(=O)OC[C@H]1[C@H](F)[C@@H](Nc2ncncc2C(=O)c2cc3c(s2)C(F)(F)C[C@]32NCCc3ccc(Cl)cc32)C[C@@H]1O .
50 to 200 nM
